Values compiled from the supplement of paper PMC11061612.

combination Emax by entry:
Tested on: CW-2 (Colorectal Carcinoma)
Test: combination Emax (second highest fraction inhibited in the dose matrix, 72 h); higher = more inhibition; extreme values may be limits of the assay

COMPOUND	combination Emax
CS(=O)(=O)CCNCc1ccc(-c2ccc3ncnc(Nc4ccc(OCc5cccc(F)c5)c(Cl)c4)c3c2)o1 [Lapatinib] + NC1(c2ccc(-c3nc4ccn5c(=O)[nH]nc5c4cc3-c3ccccc3)cc2)CCC1 [MK-2206] (first compound max 10 µM, 7x7, partner max 10 µM)	0.611
C[C@@H](Nc1cc(F)cc(F)c1)c1cc(C(=O)N(C)C)cc2c(=O)cc(N3CCOCC3)oc12 [AZD8186] + C1CN(CCC1(C(=O)N[C@@H](CCO)C2=CC=C(C=C2)Cl)N)C3=NC=NC4=C3C=CN4 [AZD5363] (first compound max 10 µM, 7x7, partner max 10 µM)	0.275
